# Tested on: Mus musculus
# MEASUREMENT_NOTES: Analgesic activity in Swiss mouse at 20 mg/kg, po assessed as reaction time after 30 mins by hot plate method
# Format: functional
// Time lookup, one value per entry
MEASUREMENT_KIND: Time (s)

[[record]]
compound = "O=c1c2ccccc2[nH]c2nc3sc4nc5ccccc5nc4n3c(=O)c12"
tgt = "Mus musculus"
reading = 8.16

[[record]]
compound = "O=c1c2cc3ccccc3nc2nc2sc3nc4ccccc4nc3n12"
tgt = "Mus musculus"
reading = 8.84

[[record]]
compound = "O=c1c2c(-c3ccc(Cl)cc3)c3c(nc2nc2sc4nc5ccccc5nc4n12)/C(=C\\c1ccc(Cl)cc1)CCC3"
tgt = "Mus musculus"
reading = 8.61

[[record]]
compound = "O=C([O-])Cc1ccccc1Nc1c(Cl)cccc1Cl.[Na+] [DICLOFENAC SODIUM]"
tgt = "Mus musculus"
reading = 10

[[record]]
compound = "O=c1c2c(-c3ccccc3)c3c(nc2nc2sc4nc5ccccc5nc4n12)/C(=C\\c1ccccc1)CCC3"
tgt = "Mus musculus"
reading = 7.51

[[record]]
compound = "Cc1nn(-c2ccccc2)c2nc3nc4sc5nc6ccccc6nc5n4c(=O)c3cc12"
tgt = "Mus musculus"
reading = 7.55

[[record]]
compound = "Cc1cc(C)c2c(N)c3c(=O)n4c(nc3nc2n1)sc1nc2ccccc2nc14"
tgt = "Mus musculus"
reading = 10.1

[[record]]
compound = "O=c1c2cc3c(nc2nc2sc4nc5ccccc5nc4n12)CCCC3"
tgt = "Mus musculus"
reading = 8.4

[[record]]
compound = "COc1ccc(/C=C2/CCCc3c2nc2nc4sc5nc6ccccc6nc5n4c(=O)c2c3-c2ccc(OC)cc2)cc1"
tgt = "Mus musculus"
reading = 8.67

[[record]]
compound = "Nc1cc(=O)n2c(n1)sc1nc3ccccc3nc12"
tgt = "Mus musculus"
reading = 8.42

[[record]]
compound = "O=c1cc(/N=C/c2ccncc2)nc2sc3nc4ccccc4nc3n12"
tgt = "Mus musculus"
reading = 9.66

[[record]]
compound = "Nc1cc(=O)[nH]c(Sc2nc3ccccc3nc2Cl)n1"
tgt = "Mus musculus"
reading = 8.42

[[record]]
compound = "O=c1c2ccc(Cl)cc2[nH]c2nc3sc4nc5ccccc5nc4n3c(=O)c12"
tgt = "Mus musculus"
reading = 7.07

